Test system: β-galactosidase in CMV-LacZ C2C12 myotubes
Assay: CMV-LacZ secondary screen in C2C12 myotubes (β-Gal stabilizing assay)
Format: cell-based, mouse
Details: 40 uM; C2C12 CMV-LacZ myotubes; fold relative to DMSO
Can you tell me CMV-LACZ in Myotubes, signal relative to DMSO for the items I'm about to list?
Give bare numbers.

CS(=O)(=O)c1ccc(Cl)c(NC(=O)CSc2nncn2-c2ccccc2)c1; 0.9743
COc1ccc(OC)c(NC(=O)CN2CCC(NC(=O)c3ccccc3C)CC2)c1; 1.3024
CCc1c(C2(O)CCCCC2)[nH]c2ncccc12; 0.7307
CC(=O)Nc1ccc(N(C(=O)c2cnccn2)C(C(=O)NC2CCCCC2)c2ccc(F)cc2)cc1 (centres unmarked); 0.8805
O=C(CSc1nnc(COc2ccc(Br)cc2)o1)NC1CCCCC1; 1.0667
CC(C)(C)NC(=O)NC(=O)CN1CCN(Cc2ccccc2)CC1; 0.9720
Cc1ccc(NS(=O)(=O)c2ccc(-c3ccc(=O)[nH]n3)o2)c(C)c1; 1.0011
COc1ccc(S(=O)(=O)Nc2ccc(S(=O)(=O)Nc3nccs3)cc2)cc1; 0.989

Provide each entry's CMV-LACZ in Myotubes, signal relative to DMSO from the list below.
1. OC(c1nc2ccc(F)cc2[nH]1)C(O)c1nc2ccc(F)cc2[nH]1 (centres unmarked)
2. Cc1ccccc1NC(=O)NCCCN1CCN(C)CC1
3. CC(C)CN(C(=O)c1cccc(Cl)c1)c1c(N)n(Cc2ccccc2)c(=O)[nH]c1=O
4. CC(NC(=O)c1ccc(C(C)(C)C)cc1)C(c1cccs1)N1CCOCC1 (centres unmarked)
5. O=C(Nc1ccccc1OC(=O)c1ccc(Cl)cc1)c1ccc(Cl)cc1
6. CCCC(=O)OCC(=O)c1[nH]c(C)c(C(C)=O)c1C

[1.0318, 1.0741, 1.1235, 0.9722, 0.9478, 1.0540]

meta.source: patent US9980943B2
